test system: SNB-19; test: NCI tumour cell line growth inhibition, 48 h
Among all 57,000 sequences or so, about 2,900 (5.1%) were called active. These entries were drawn from the full list. Entries with a potency or affinity are not part of this list.

>  <Substance>
[Bis(aminomethyl)dimethylsilane]dichloroplatinum (II), CHEMBL2146201

>  <GI50, µM>
24.4

$$$$
>  <Substance>
[Bis(aminomethyl)ethylmethylsilane]tetrachloroplatinum(IV), CHEMBL2146192

>  <GI50, µM>
5.37

$$$$
>  <Substance>
[Bis(aminomethyl)diethylsilane]tetrachloroplatinum(IV), CHEMBL2146203

>  <GI50, µM>
4.05

$$$$
>  <Substance>
[Bis(aminomethyl)tetramethylenesilane]dichloropaltinum(II), CHEMBL2146205

>  <GI50, µM>
47.5

$$$$
>  <Substance>
[Bis(aminomethyl)dimethylsilane]tetrachloroplatinum(IV), CHEMBL2146190

>  <GI50, µM>
8.77

$$$$
>  <Substance>
mu-(1,7-nanodiamine-N,N')bis-(cis-aminedichloroplatimum (II)), CHEMBL2146215

>  <GI50, µM>
39.1

$$$$
>  <Substance>
CISPLATIN, CHEMBL11359

>  <GI50, µM>
3.19

$$$$
